Form field: kon (one value per entry).
Biological target: T1, Human BCMA (human, UniProt Q02223 1-54, limits assumed)
T1 construct: Soluble analyte in SPR; construct not described; also called huBCMA; B-cell maturation antigen
T1 sequence (looked up): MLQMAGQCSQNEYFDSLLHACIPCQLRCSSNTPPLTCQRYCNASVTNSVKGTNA
Assay: SPR, IgG immobilised, 37 C

binder	kon (M⁻¹ s⁻¹)
L3.PY/L1.AH/H3.YA (antibody, V domains shown, IgG) VH: EVQLLESGGGLVQPGGSLRLSCAASGFTFGSYAMTWVRQAPGKGLEWVSAISGSGGNTFYADSVKGRFTISRDNSKNTLYLQMNSLRAEDTAVYYCARVSPIYAGMDYWGQGTLVTVSS VL: EIVLTQSPGTLSLSPGERATLSCRASQSVSAHYLAWYQQKPGQAPRLLIYGASSRATGIPDRFSGSGSGTDFTLTISRLEPEDFAVYYCQHYPYPPSFTFGQGTKVEIK	3e+06
L3.PY/H2.HA (antibody, V domains shown, IgG) VH: EVQLLESGGGLVQPGGSLRLSCAASGFTFGSYAMTWVRQAPGKGLEWVSAISHAGGNTFYADSVKGRFTISRDNSKNTLYLQMNSLRAEDTAVYYCARVSPIASGMDYWGQGTLVTVSS VL: EIVLTQSPGTLSLSPGERATLSCRASQSVSSSYLAWYQQKPGQAPRLLIYGASSRATGIPDRFSGSGSGTDFTLTISRLEPEDFAVYYCQHYPYPPSFTFGQGTKVEIK	2.43e+06
L3.PY/H3.TAQ (antibody, V domains shown, IgG) VH: EVQLLESGGGLVQPGGSLRLSCAASGFTFGSYAMTWVRQAPGKGLEWVSAISGSGGNTFYADSVKGRFTISRDNSKNTLYLQMNSLRAEDTAVYYCTRVSPIAAQMDYWGQGTLVTVSS VL: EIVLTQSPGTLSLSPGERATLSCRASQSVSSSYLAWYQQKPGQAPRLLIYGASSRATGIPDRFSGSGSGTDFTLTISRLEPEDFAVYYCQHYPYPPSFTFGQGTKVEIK	3.08e+06
L3.PY/L1.PH/H2.HA (antibody, V domains shown, IgG) VH: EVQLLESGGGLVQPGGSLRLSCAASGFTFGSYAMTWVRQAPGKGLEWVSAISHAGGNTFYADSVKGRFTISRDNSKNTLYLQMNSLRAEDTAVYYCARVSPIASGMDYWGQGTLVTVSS VL: EIVLTQSPGTLSLSPGERATLSCRASQSVSPHYLAWYQQKPGQAPRLLIYGASSRATGIPDRFSGSGSGTDFTLTISRLEPEDFAVYYCQHYPYPPSFTFGQGTKVEIK	2.37e+06
L3.PY/L3.KF/H2.YQ (antibody, V domains shown, IgG) VH: EVQLLESGGGLVQPGGSLRLSCAASGFTFGSYAMTWVRQAPGKGLEWVSAISYQGGNTFYADSVKGRFTISRDNSKNTLYLQMNSLRAEDTAVYYCARVSPIASGMDYWGQGTLVTVSS VL: EIVLTQSPGTLSLSPGERATLSCRASQSVSSSYLAWYQQKPGQAPRLLIYGASSRATGIPDRFSGSGSGTDFTLTISRLEPEDFAVYYCKFYPYPPSFTFGQGTKVEIK	1.96e+06

Where these numbers come from: patent US20160297884A1
